# target_under_test: CDC7/Cyclin B1 (Homo sapiens, UniProt O00311+P14635)
# Sequence (P14635 whole entry): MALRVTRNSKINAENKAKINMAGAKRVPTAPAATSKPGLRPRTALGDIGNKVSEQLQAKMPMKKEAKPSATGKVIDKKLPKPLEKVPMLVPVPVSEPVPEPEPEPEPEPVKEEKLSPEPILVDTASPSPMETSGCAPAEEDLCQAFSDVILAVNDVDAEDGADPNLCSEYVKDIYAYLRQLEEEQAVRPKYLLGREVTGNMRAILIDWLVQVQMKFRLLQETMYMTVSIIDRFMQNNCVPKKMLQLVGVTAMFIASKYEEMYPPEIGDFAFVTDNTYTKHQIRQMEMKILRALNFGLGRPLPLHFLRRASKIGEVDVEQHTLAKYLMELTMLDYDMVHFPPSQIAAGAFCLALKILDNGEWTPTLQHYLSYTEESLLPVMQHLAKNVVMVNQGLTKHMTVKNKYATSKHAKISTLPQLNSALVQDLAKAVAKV
# Sequence (O00311 whole entry): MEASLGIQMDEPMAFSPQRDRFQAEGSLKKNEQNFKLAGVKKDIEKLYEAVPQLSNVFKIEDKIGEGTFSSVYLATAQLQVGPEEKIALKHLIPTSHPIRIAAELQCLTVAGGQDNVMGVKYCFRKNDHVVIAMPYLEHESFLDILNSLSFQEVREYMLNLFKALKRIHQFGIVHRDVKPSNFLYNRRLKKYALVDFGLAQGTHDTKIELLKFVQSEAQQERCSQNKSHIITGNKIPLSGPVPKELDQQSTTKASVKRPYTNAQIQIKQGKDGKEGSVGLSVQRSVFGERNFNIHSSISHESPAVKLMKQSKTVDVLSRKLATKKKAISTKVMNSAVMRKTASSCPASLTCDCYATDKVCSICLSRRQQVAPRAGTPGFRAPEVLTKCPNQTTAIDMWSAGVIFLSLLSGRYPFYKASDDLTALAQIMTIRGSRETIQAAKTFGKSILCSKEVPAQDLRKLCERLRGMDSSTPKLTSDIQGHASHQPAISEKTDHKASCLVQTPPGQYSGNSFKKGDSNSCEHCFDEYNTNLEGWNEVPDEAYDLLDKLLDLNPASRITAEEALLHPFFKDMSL
# assay_notes: Inhibition of recombinant full length human CDC7/CyclinB1 using Histone H1 as substrate incubated for 120 mins in presence of [gamma-33ATP] by radiometric scintillation counting analysis
reported_endpoint: IC50

Please report the measured IC50 for `CN(C)c1ccc(C(=O)Nc2cccc(NC(=O)COc3ccc4c(=O)ccoc4c3)c2)cc1`
> 10 µM

---

# target_under_test: Tyrosine-protein kinase Blk (Homo sapiens, UniProt P51451)
# assay_notes: Inhibition of human full-length recombinant BLK M287V mutant using poly(Glu, Tyr) 4:1 as substrate measured after 40 mins in presence of [gamma33P]ATP by radiometric scintillation counting analysis
pIC50: −log10 of the molar value.
reported_endpoint: pIC50

Give reported pIC50 value for `CN(C)c1ccc(C(=O)Nc2cccc(NC(=O)COc3ccc4c(=O)ccoc4c3)c2)cc1`
< 5.00

---

# target_under_test: Tau-tubulin kinase 2 (Homo sapiens)
# assay_notes: Inhibition of recombinant human TTBK2 (1 to331 residues) using casein as substrate incubated for 40 mins in presence of [gamma33P]ATP by radiometric scintillation counting analysis
reported_endpoint: IC50

Read the entry `CN(C)c1ccc(C(=O)Nc2cccc(NC(=O)COc3ccc4c(=O)ccoc4c3)c2)cc1` and write its reported IC50.
> 10 µM

---

# target_under_test: Homeodomain-interacting protein kinase 1 (Homo sapiens, UniProt Q86Z02)
# Sequence (Q86Z02 whole entry, the tested form may be a part): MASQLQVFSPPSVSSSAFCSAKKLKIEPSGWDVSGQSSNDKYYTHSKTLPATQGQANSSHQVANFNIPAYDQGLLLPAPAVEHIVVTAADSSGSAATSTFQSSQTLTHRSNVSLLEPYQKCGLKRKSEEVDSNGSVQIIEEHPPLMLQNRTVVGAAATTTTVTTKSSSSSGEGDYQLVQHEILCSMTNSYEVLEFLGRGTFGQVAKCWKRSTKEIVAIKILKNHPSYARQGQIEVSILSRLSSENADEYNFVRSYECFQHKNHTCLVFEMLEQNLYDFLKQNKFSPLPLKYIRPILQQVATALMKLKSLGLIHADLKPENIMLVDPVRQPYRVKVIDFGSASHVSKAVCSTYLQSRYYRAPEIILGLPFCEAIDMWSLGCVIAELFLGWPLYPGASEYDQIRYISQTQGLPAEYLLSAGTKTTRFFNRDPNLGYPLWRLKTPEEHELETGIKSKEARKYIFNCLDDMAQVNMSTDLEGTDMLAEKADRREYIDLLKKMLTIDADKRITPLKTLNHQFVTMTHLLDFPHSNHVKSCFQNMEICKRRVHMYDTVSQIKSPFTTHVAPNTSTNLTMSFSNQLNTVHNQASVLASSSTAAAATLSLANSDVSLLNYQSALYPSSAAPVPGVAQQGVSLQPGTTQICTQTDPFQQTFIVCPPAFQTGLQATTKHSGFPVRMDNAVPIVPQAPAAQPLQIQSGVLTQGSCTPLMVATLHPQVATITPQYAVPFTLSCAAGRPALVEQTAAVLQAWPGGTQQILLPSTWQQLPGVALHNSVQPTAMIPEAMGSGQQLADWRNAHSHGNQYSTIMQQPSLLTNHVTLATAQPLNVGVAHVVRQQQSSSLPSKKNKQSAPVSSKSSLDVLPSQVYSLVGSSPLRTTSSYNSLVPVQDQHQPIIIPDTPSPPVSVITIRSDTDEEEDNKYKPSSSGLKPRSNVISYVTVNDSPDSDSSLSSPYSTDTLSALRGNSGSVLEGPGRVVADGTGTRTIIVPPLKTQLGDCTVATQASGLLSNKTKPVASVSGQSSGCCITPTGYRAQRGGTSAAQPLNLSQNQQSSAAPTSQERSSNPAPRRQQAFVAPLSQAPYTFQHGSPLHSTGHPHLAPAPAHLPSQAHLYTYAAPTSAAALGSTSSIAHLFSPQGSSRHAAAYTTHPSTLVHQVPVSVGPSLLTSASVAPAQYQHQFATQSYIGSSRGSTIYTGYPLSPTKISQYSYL
# assay_notes: Inhibition of human recombinant HIPK1 (158 to 555 residues) using myelin basic protein as substrate after 40 mins by [gamma-33ATP] radiometric assay
reported_endpoint: IC50

Name the recorded IC50 of the item `CN(C)c1ccc(C(=O)Nc2cccc(NC(=O)COc3ccc4c(=O)ccoc4c3)c2)cc1` in your answer.
> 10 µM

---

# target_under_test: Protein kinase C alpha type (Homo sapiens, UniProt P17252)
# assay_notes: Inhibition of recombinant human full length PKCalpha using histone as substrate incubated for 40 mins in presence of [gamma33P]ATP by radiometric scintillation counting analysis
pIC50: −log10 of the molar value.
reported_endpoint: pIC50

Tell me its pIC50 given `CN(C)c1ccc(C(=O)Nc2cccc(NC(=O)COc3ccc4c(=O)ccoc4c3)c2)cc1` as the entry.
< 5.00

---

# target_under_test: Serine/threonine-protein kinase 10 (Homo sapiens, UniProt O94804)
# assay_notes: Inhibition of recombinant human LOK (1 to 348 residues) using RLGRDKYKTLRQI as substrate after 40 mins in presence of [gamma-33ATP] by radiometric scintillation counting analysis
reported_endpoint: IC50

# return recorded IC50 for entry `CN(C)c1ccc(C(=O)Nc2cccc(NC(=O)COc3ccc4c(=O)ccoc4c3)c2)cc1`
> 10 µM

---

# target_under_test: RAC-beta serine/threonine-protein kinase (Homo sapiens, UniProt P31751, S474D)
# Sequence (P31751 whole entry S474D): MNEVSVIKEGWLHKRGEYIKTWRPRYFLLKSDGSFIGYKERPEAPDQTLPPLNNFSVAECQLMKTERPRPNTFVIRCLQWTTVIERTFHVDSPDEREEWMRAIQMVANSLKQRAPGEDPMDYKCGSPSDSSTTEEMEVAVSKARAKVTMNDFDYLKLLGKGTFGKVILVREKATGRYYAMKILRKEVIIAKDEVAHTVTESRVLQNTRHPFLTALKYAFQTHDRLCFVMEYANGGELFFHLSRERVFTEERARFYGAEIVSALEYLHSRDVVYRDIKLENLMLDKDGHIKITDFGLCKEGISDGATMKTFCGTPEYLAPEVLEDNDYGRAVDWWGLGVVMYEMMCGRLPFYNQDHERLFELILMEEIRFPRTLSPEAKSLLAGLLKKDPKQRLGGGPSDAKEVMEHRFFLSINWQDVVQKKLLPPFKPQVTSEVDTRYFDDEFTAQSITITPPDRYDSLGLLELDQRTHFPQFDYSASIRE
# assay_notes: Inhibition of recombinant human PKBbeta S474D mutant (120 to end residues) using GRPRTSSFAEGKK as substrate incubated for 40 mins in presence of [gamma33P]ATP by radiometric scintillation counting analysis
reported_endpoint: IC50

Assign IC50 to the following record: `CN(C)c1ccc(C(=O)Nc2cccc(NC(=O)COc3ccc4c(=O)ccoc4c3)c2)cc1`
> 10 µM

---

# target_under_test: CDK2/Cyclin A1 (Homo sapiens)
# assay_notes: Inhibition of recombinant full length human CDK2/CyclinA using Histone H1 as substrate incubated for 40 mins in presence of [gamma-33ATP] by radiometric scintillation counting analysis
reported_endpoint: IC50

Give a short answer stating reported IC50 for `CN(C)c1ccc(C(=O)Nc2cccc(NC(=O)COc3ccc4c(=O)ccoc4c3)c2)cc1` .
> 10 µM

---

# target_under_test: Serine/threonine-protein kinase SIK2 (Homo sapiens, UniProt Q9H0K1)
# Sequence (Q9H0K1 whole entry, the tested form may be a part): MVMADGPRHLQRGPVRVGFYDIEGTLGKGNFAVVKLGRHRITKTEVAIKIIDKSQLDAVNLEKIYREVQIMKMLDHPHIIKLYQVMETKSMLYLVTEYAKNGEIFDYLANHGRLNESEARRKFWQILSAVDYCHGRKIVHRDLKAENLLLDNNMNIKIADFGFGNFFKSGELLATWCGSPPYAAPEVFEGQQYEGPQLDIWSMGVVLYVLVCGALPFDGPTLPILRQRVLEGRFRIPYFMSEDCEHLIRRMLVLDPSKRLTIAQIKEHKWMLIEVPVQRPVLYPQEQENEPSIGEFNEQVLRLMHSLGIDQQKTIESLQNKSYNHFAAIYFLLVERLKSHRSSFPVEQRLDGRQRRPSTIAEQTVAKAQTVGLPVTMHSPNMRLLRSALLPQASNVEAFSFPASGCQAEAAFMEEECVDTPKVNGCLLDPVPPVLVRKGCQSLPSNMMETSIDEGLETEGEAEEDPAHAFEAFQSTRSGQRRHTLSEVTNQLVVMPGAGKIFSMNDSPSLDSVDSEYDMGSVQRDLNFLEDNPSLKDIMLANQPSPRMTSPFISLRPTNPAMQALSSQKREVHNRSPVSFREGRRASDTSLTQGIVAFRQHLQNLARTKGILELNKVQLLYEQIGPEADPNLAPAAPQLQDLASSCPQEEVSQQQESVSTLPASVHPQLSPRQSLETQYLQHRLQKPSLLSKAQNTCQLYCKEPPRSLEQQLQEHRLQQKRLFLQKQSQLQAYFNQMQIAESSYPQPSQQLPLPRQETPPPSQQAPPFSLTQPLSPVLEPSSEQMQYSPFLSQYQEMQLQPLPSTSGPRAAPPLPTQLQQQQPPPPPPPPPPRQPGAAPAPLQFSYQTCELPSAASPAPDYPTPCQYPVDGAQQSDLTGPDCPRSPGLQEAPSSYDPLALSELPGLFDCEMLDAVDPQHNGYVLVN
# assay_notes: Inhibition of recombinant human SIK2 (1 to 276 residues) using KKKVSRSGLYRSP as substrate incubated for 40 mins in presence of [gamma33P]ATP by radiometric scintillation counting analysis
reported_endpoint: IC50

Could you please provide reported IC50 for `CN(C)c1ccc(C(=O)Nc2cccc(NC(=O)COc3ccc4c(=O)ccoc4c3)c2)cc1` ? Thanks!
> 10 µM

---

# target_under_test: Testis-specific serine/threonine-protein kinase 3 (Homo sapiens)
# Sequence (Q96PN8 whole entry): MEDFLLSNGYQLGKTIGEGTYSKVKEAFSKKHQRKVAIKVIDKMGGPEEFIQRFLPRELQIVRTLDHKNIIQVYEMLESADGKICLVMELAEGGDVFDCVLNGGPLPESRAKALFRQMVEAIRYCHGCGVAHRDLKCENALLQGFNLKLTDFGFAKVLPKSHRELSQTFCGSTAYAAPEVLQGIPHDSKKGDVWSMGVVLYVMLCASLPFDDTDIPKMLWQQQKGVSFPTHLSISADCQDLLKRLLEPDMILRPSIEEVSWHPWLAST
# assay_notes: Inhibition of recombinant full-length human TSSK3 using AMARAASAAALAR as substrate incubated for 40 mins in presence of [gamma33P]ATP by radiometric scintillation counting analysis
reported_endpoint: IC50

Return IC50 for the following compound: `CN(C)c1ccc(C(=O)Nc2cccc(NC(=O)COc3ccc4c(=O)ccoc4c3)c2)cc1`
> 10 µM

---

# target_under_test: Tyrosine-protein kinase FRK (Homo sapiens, UniProt P42685)
# assay_notes: Inhibition of recombinant human PTK5 (218 to end residues) using GGEEEEYFELVKK as substrate incubated for 40 mins in presence of [gamma33P]ATP by radiometric scintillation counting analysis
pIC50: −log10 of the molar value.
reported_endpoint: pIC50

Identify the reported pIC50 for the following entry. `CN(C)c1ccc(C(=O)Nc2cccc(NC(=O)COc3ccc4c(=O)ccoc4c3)c2)cc1`
< 5.00

---

# target_under_test: Receptor-type tyrosine-protein kinase FLT3 (Homo sapiens, UniProt P36888, D835Y)
# assay_notes: Inhibition of recombinant human FLT3 D835Y mutant (564 to end residues) using EAIYAAPFAKKK as substrate after 40 mins in presence of [gamma-33ATP] by radiometric scintillation counting analysis
reported_endpoint: IC50

Return IC50 for the following compound: `CN(C)c1ccc(C(=O)Nc2cccc(NC(=O)COc3ccc4c(=O)ccoc4c3)c2)cc1`
> 10 µM

---

# target_under_test: Epidermal growth factor receptor (Homo sapiens, UniProt P00533, L861Q)
# assay_notes: Inhibition of recombinant human EGFR L861Q mutant (696 to end residues) using poly(Glu, Tyr) 4:1 as substrate after 40 mins in presence of [gamma-33ATP] by radiometric scintillation counting analysis
reported_endpoint: IC50

Give me measured IC50, please, for this molecule: `CN(C)c1ccc(C(=O)Nc2cccc(NC(=O)COc3ccc4c(=O)ccoc4c3)c2)cc1`
> 10 µM

---

reported_endpoint: IC50

State recorded IC50 with UniProtKB Q9UKE5, entry `CN(C)c1ccc(C(=O)Nc2cccc(NC(=O)COc3ccc4c(=O)ccoc4c3)c2)cc1` , no comment.
> 10 µM

---

# target_under_test: Cyclin-dependent kinase 13/Cyclin-K (Homo sapiens, UniProt Q14004)
# assay_notes: Inhibition of recombinant full length human CDK13/cyclinK using RSRSRSRSRSRSR as substrate incubated for 120 mins in presence of [gamma-33ATP] by radiometric scintillation counting analysis
reported_endpoint: IC50

Item `CN(C)c1ccc(C(=O)Nc2cccc(NC(=O)COc3ccc4c(=O)ccoc4c3)c2)cc1` : provide IC50
> 10 µM

---

# target_under_test: Aurora kinase C (Homo sapiens, UniProt Q9UQB9)
# assay_notes: Inhibition of human recombinant AURORA-C (35 to end residues) using AKRRRLSSLRA as substrate incubated for 40 mins in presence of [gamma-33ATP] by radiometric scintillation counting analysis
pIC50: −log10 of the molar value.
reported_endpoint: pIC50

Return pIC50 (reported value) for this compound: `CN(C)c1ccc(C(=O)Nc2cccc(NC(=O)COc3ccc4c(=O)ccoc4c3)c2)cc1`
< 5.00

---

# target_under_test: Serine/threonine-protein kinase PRP4 homolog (Homo sapiens)
# assay_notes: Inhibition of recombinant human PRP4 (663 to end residues) using casein as substrate incubated for 40 mins in presence of [gamma33P]ATP by radiometric scintillation counting analysis
reported_endpoint: IC50

Supply measured IC50 of `CN(C)c1ccc(C(=O)Nc2cccc(NC(=O)COc3ccc4c(=O)ccoc4c3)c2)cc1` in your reply.
> 10 µM

---

# target_under_test: Serine/threonine-protein kinase mTOR (Homo sapiens)
# assay_notes: Inhibition of recombinant full length human mTOR measured after 40 mins in presence of [gamma33P]ATP by radiometric scintillation counting analysis
pIC50: −log10 of the molar value.
reported_endpoint: pIC50

# return pIC50 of `CN(C)c1ccc(C(=O)Nc2cccc(NC(=O)COc3ccc4c(=O)ccoc4c3)c2)cc1` (system: Serine/threonine-protein kinase mTOR (Homo sapiens))
< 5.00

---

# target_under_test: Ephrin type-A receptor 4 (Homo sapiens)
# Sequence (P54764 whole entry, the tested form may be a part): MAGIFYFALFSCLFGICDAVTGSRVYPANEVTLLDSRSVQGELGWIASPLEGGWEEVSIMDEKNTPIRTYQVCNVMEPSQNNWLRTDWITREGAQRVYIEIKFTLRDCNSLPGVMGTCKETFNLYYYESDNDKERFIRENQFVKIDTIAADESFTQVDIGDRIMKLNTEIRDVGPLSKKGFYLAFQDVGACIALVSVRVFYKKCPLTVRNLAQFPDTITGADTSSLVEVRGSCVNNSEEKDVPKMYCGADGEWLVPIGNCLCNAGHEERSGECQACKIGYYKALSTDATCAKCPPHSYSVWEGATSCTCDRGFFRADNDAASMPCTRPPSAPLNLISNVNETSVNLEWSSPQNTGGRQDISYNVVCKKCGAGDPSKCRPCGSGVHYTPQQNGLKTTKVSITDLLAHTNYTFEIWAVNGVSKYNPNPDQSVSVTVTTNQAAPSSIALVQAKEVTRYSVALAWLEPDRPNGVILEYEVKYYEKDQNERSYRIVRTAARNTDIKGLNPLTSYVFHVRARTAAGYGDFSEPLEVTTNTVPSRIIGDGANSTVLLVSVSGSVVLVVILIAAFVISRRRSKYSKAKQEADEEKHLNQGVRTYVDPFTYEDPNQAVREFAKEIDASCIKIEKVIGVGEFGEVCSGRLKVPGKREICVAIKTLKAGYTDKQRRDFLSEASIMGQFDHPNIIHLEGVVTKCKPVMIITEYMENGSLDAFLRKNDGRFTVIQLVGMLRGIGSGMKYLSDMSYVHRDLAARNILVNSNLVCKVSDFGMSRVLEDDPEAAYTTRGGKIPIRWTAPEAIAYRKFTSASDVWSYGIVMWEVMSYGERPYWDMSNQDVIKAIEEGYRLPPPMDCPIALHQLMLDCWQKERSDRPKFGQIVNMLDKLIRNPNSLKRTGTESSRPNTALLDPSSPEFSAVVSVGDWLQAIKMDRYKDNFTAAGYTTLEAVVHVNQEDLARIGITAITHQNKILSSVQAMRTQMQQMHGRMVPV
# assay_notes: Inhibition of recombinant human EphA4 (601 to 892 residues) using poly(Glu, Tyr) 4:1 as substrate measured after 40 mins in presence of [gamma33ATP] by radiometric scintillation counting analysis
pIC50: −log10 of the molar value.
reported_endpoint: pIC50

For the compound `CN(C)c1ccc(C(=O)Nc2cccc(NC(=O)COc3ccc4c(=O)ccoc4c3)c2)cc1` , give its measured pIC50 value.
< 5.00

---

# target_under_test: UniProtKB O75116
# assay_notes: Inhibition of recombinant human ROCK2 (11 to 552 residues) using KEAKEKRQEQIAKR as substrate incubated for 40 mins in presence of [gamma-33P]ATP and 10 uM ATP by radiometric scintillation counting analysis
Field: class. Source value: IC50. Ranges: lower band = under 40 nM, central band = from 40 nM up to 2000 nM, upper band = 2000 nM and over

Dear colleague, I would appreciate it if you could identify the bin for `CN(C)c1ccc(S(=O)(=O)Nc2cccc(NC(=O)COc3ccc4c(=O)ccoc4c3)c2)cc1` and reply at your convenience.
central band

Would you mind sorting `COc1ccc(C(=O)Nc2cccc(NC(=O)COc3ccc4c(=O)ccoc4c3)c2)cc1` into the appropriate category?
lower band

Sort into band: `CN(C)c1ccc(C(=O)Nc2cc(Br)cc(NC(=O)COc3ccc4c(=O)ccoc4c3)c2)cc1`
upper band

Given `CN(C)c1ccc(C(=O)Nc2cccc(NC(=O)COc3ccc4occc(=O)c4c3)c2)cc1` , name the class its IC50 places it in.
upper band

Assign a category based on measured IC50 for `CN(C)c1ccc(C(=O)Nc2cc(NC(=O)COc3ccc4c(=O)ccoc4c3)cc(C(F)(F)F)c2)cc1` and give only the class name.
upper band

Place this molecule in its band: `CN(C)c1ccc(C(=O)Nc2cccc(NC(=O)COc3ccc4c(c3)OCO4)c2)cc1`
upper band

Which bin should I file `Cc1c(NC(=O)COc2ccc3c(=O)ccoc3c2)cccc1NC(=O)c1ccc(N(C)C)cc1` under?
upper band

State the band of `CN(C)c1ccc(C(=O)Nc2cccc(NS(=O)(=O)COc3ccc4c(=O)ccoc4c3)c2)cc1`
lower band

Pick a category. Item: `CC(C)(C)c1ccc(C(=O)Nc2cccc(NC(=O)COc3ccc4c(=O)ccoc4c3)c2)cc1`
lower band

Which class holds `O=C(COc1ccc2c(=O)ccoc2c1)Nc1cccc(NC(=O)c2cnc(C(F)(F)F)s2)c1` ?
lower band

Assign a category based on measured IC50 for `Cc1ccc(C(=O)Nc2cccc(NC(=O)COc3ccc4c(=O)ccoc4c3)c2)cc1` and give only the class name.
lower band

Consider `O=C(COc1ccc2c(=O)ccoc2c1)Nc1cccc(NC(=O)c2ccc(Br)cc2)c1` . To which IC50 class does it belong?
central band

Band of `CCOc1ccc(C(=O)Nc2cccc(NC(=O)COc3ccc4c(=O)ccoc4c3)c2)cc1` ?
lower band

Assign a bin to `O=C(COc1ccc2c(=O)ccoc2c1)Nc1cccc(NC(=O)c2ccc(F)cc2)c1`
central band

Form field 'band' for `CN(C)c1ccc(C(=O)Nc2cccc(NC(=O)COc3ccc4c(=O)ccoc4c3)c2)cc1`
lower band

Which band does `COc1ccc(OCC(=O)Nc2cccc(NC(=O)c3ccc(N(C)C)cc3)c2)cc1F` fall in?
central band

Sort into band: `Cc1cc(NC(=O)COc2ccc3c(=O)ccoc3c2)ccc1NC(=O)c1ccc(N(C)C)cc1`
upper band

Which band does `Cc1ccc(NC(=O)c2ccc(N(C)C)cc2)cc1NC(=O)COc1ccc2c(=O)ccoc2c1` fall in?
upper band

Form: Item = `CN(C)c1ccc(C(=O)Nc2cccc(NC(=O)COc3ccc4c(c3)CCC(=O)N4)c2)cc1` ; Class = ?
upper band

Could you place `CN(C)c1ccc(C(=O)Nc2ccc(CNC(=O)COc3ccc4c(=O)ccoc4c3)cc2)cc1` in its proper category? Many thanks.
central band

Returns: class label. Input: `Cc1coc2cc(OCC(=O)Nc3cccc(NC(=O)c4ccc(N(C)C)cc4)c3)ccc2c1=O`
upper band

GET /class?item= `Cc1cc(C(=O)Nc2cccc(NC(=O)COc3ccc4c(=O)ccoc4c3)c2)ccc1C(F)(F)F`
central band

State the band of `Nc1cccc(C(=O)Nc2cccc(NC(=O)COc3ccc4c(=O)ccoc4c3)c2)c1`
central band

Returns: class label. Input: `Cc1nc(C(=O)Nc2cccc(NC(=O)COc3ccc4c(=O)ccoc4c3)c2)cs1`
lower band

Just checking, what class would you give `CCCC(=O)Nc1cccc(NC(=O)COc2ccc3c(=O)ccoc3c2)c1` here?
central band

Please let me know in which category the item `Cc1cc(NC(=O)COc2ccc3c(=O)ccoc3c2)cc(NC(=O)c2ccc(N(C)C)cc2)c1` belongs.
upper band

Tag the class for `N#Cc1ccc(C(=O)Nc2cccc(NC(=O)COc3ccc4c(=O)ccoc4c3)c2)cc1`
lower band

Which IC50 category applies to `Cc1c(OCC(=O)Nc2cccc(NC(=O)c3ccc(N(C)C)cc3)c2)ccc2c(=O)ccoc12` here?
upper band

Please indicate the class for `CN(C)c1ccc(C(=O)Nc2cccc(NC(=O)COc3ccc4c(c3)OCCO4)c2)cc1` based on its IC50.
upper band

Which IC50 band matches `COc1ccc(OCC(=O)Nc2cccc(NC(=O)c3ccc(N(C)C)cc3)c2)cc1OC` ?
upper band

Which band does `COc1cc(OCC(=O)Nc2cccc(NC(=O)c3ccc(N(C)C)cc3)c2)ccc1C=O` fall in?
central band

Consider `O=C(COc1ccc2c(=O)ccoc2c1)Nc1cccc(NS(=O)(=O)c2ccc(C(F)(F)F)cc2)c1` . To which IC50 class does it belong?
upper band

Form field 'band' for `Nc1ccc(C(=O)Nc2cccc(NC(=O)COc3ccc4c(=O)ccoc4c3)c2)cc1`
central band

Which category fits this record: `CC(C)(C)c1ccc(S(=O)(=O)Nc2cccc(NC(=O)COc3ccc4c(=O)ccoc4c3)c2)cc1`
central band

// return the class label for `CN(C)c1ccc(C(=O)Nc2cccc(NC(=O)COc3ccc4c(c3)NC(=O)CC4)c2)cc1`
upper band

Returns: class label. Input: `COc1cccc(OCC(=O)Nc2cccc(NC(=O)c3ccc(N(C)C)cc3)c2)c1`
upper band
